Data credit: PubChem BioAssay AID2796

- TESTED_TARGET: Aryl hydrocarbon receptor (Homo sapiens)
- TEST_NAME: AHR activators, primary screen, cell-based, luminescence, luciferase reporter, human (AID 2796);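 further: 0% = vehicle wells and 100% = reference agonist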
- RUN_PARAMETERS: AHR-responsive luciferase reporter cells, at 5 µM, active compounds read high
The whole screen tested about 320,000 compounds, of which about 8,000 (2.5%) were called active. This excerpt belongs to a sample that is enriched for actives.
Each entry below carries its recorded activation.
READOUT: activation (%)

>>> df
                                    compound     readout  unit_tag  assay_value
 0  CCOc1ccc(C(O)Cc2nc3ccccc3n2C)cc1 (centres undefined)  activation         %          118
 1  Cc1ccc(/C=C(\C#N)C(=O)Nc2cccc3ncccc23)o1  activation         %            7
 2  CCN(CC)S(=O)(=O)N1CCC(C(=O)NC(C)CCc2ccccc2)CC1 (centres undefined)  activation         %        -1.06
 3  Cc1cc(=O)oc2c3c(cc(OCC(=O)NCc4ccccn4)c12)OC(C)(C)CC3  activation         %         4.58
 4  O=C(CN1C(=O)NC2(CCCC2)C1=O)Nc1cc(C(F)(F)F)ccc1N1CCOCC1  activation         %        -0.32
 5     COc1cc(C)ccc1OCC(=O)OCC(=O)c1ccc[nH]1  activation         %         -3.4
 6  COc1cc(C)nc(N2CCCC(C(=O)NCC(C)C)C2)n1 (centres undefined)  activation         %         5.81
 7                 CNC(=O)Nc1cc(C(C)(C)C)no1  activation         %         1.28
 8  Cc1ccc(S(=O)(=O)NCC(=O)N(CC(=O)NC(C)(C)C)Cc2cccs2)cc1  activation         %         3.31
 9  COc1ccc(Cl)cc1NS(=O)(=O)c1cccc(C(=O)NCC2CCCO2)c1 (centres undefined)  activation         %        -1.04
10  COc1ccc2c(C)cc(SCC(=O)NCC3CCCO3)nc2c1 (centres undefined)  activation         %         17.6
11          O=C1/C(=C\Nc2ccccc2)CCN1c1ncccn1  activation         %         66.5
12  Cc1c(/C=N\NC(=O)c2cc3ccccc3o2)c2ccccc2n1C  activation         %         26.2
13      CCCNC(=O)CSc1nc(Cc2ccccc2)nc2ccccc12  activation         %        -0.23
14          C/C=C/C(=O)OCC(=O)Nc1ccc(F)cc1Cl  activation         %         0.16
15  CCN(Cc1nc2ccccc2c(=O)[nH]1)Cc1cc(=O)oc2cc(C)c(C)cc12  activation         %         0.64
16  O=C(N/N=C/c1c[nH]c2ccccc12)c1cc2ccccc2o1  activation         %           99
17      O=C(c1cc2ccccc2s1)N1CCN(c2ccccn2)CC1  activation         %         27.8
18  O=C(NCc1ccc2c(c1)OCO2)c1cc([N+](=O)[O-])ccc1N1CCOCC1  activation         %        -0.76
19  CCCn1c(C(O)c2ccc(OCC)cc2)nc2ccccc21 (centres undefined)  activation         %         0.65
20      S=c1[nH]cc(-c2ccc(Cl)cc2)n1-c1ccccc1  activation         %         6.37
21  Cc1cc(SCC(=O)NCCN2C(=O)CSC2=O)nc2ccccc12  activation         %         55.3
22   O=C(Cc1ccccc1)NNC(=O)C1CCN(c2ncccn2)CC1  activation         %         0.76
23             Cn1c(N2CCOCC2)c(C=O)c2ccccc21  activation         %         1.65

----------
- TESTED_TARGET: Aryl hydrocarbon receptor (Homo sapiens)
- TEST_NAME: AHR activators, primary screen, cell-based, luminescence, luciferase reporter, human (AID 2796);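 further: 0% = vehicle wells and 100% = reference agonist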
- RUN_PARAMETERS: AHR-responsive luciferase reporter cells, at 5 µM, active compounds read high
Out of some 320,000 compounds screened, about 8,000 (2.5%) were called active. Only a selection was taken, and actives are over-represented in it overall.
activation values, listed per item
READOUT: activation

                                   compound                             tested_target     readout        assay_value
0  CCOc1ccc(C2c3[nH]c4ccccc4c3CCN2Cc2cn(CC)nc2C)cc1 (stereo unspecified)  Aryl hydrocarbon receptor (Homo sapiens)  activation     58.7% (active)
1  CC(C)C(NC(=O)OCc1ccccc1)C(=O)OCC(=O)N1C(C)CCCC1C (stereo unspecified)  Aryl hydrocarbon receptor (Homo sapiens)  activation   2.02% (inactive)
2  COc1cccc(C2c3[nH]c4ccccc4c3CCN2Cc2cccc(C)n2)c1 (stereo unspecified)  Aryl hydrocarbon receptor (Homo sapiens)  activation   17.2% (inactive)
3             Cc1cc(=O)oc2ccc(OCC(=O)O)cc12  Aryl hydrocarbon receptor (Homo sapiens)  activation  -5.16% (inactive)
4   Cc1cccc(N2CCN(C(=O)/C=C/c3ccco3)CC2)c1C  Aryl hydrocarbon receptor (Homo sapiens)  activation   2.32% (inactive)
5       Cc1nc(COc2cc3oc(=O)cc(C)c3cc2Cl)cs1  Aryl hydrocarbon receptor (Homo sapiens)  activation     48.1% (active)

----------
The entries below come with measured activation values attached.
- TESTED_TARGET: Aryl hydrocarbon receptor (Homo sapiens)
- TEST_NAME: AHR activators, primary screen, cell-based, luminescence, luciferase reporter, human (AID 2796);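 further: 0% = vehicle wells and 100% = reference agonist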
- RUN_PARAMETERS: AHR-responsive luciferase reporter cells, at 5 µM, active compounds read high
The whole screen tested about 320,000 compounds, of which about 8,000 (2.5%) were called active. For the sample, actives were picked, then their nearest neighbours and some compounds at random.
READOUT: activation (%)

                                    compound  assay_value
 0  COc1ccc(-c2[nH]nc(-c3ccccc3)c2-c2nc3ccccc3[nH]2)cc1         4.79
 1                     CCCCSc1nc2ccccc2[nH]1         1.07
 2       O=C(COC(=O)c1cccc(Cl)c1)NC1CCCCCCC1         0.68
 3  O=C(Nc1cccc(S(=O)(=O)NC2=NCCC2)c1)c1ccc(F)cc1F         1.17
 4  Cn1c(=O)c2cn(-c3cccc4ccccc34)cc2n(C)c1=O         18.1
 5  COC(C[C@@H]1O[C@@H]1C(=O)[C@@H](C)OCc1ccccc1)OC        -3.27
 6   CC1CCN(c2ccc([N+](=O)[O-])c(SCCO)c2)CC1         13.1
 7  C[C@@H](Nc1nc(-c2ccccc2)nc2c1oc1ccccc12)C(=O)O         16.4
 8  O=c1[nH]n(-c2ccc([N+](=O)[O-])cc2)c(=O)c2ccccc12         1.45
 9   CC(C)NC(=O)COCc1cc(-c2ccc3c(c2)OCO3)on1         14.2
10  O=c1[nH]c2cccnc2n1-c1ccc([N+](=O)[O-])cc1         60.9
11    COc1cc(OC)cc(C(=O)NCC(=O)N2CCCCCCC2)c1         17.3
12  COc1ccc(OC)c(/C=N/NC(=O)c2ccc[n+](CC(=O)c3ccccc3)c2)c1         12.9
13  Cc1ccc(S(=O)(=O)N(C)c2ccc(OCC(=O)OCC(=O)N(CC#N)c3ccccc3)cc2)cc1        -1.55
14  CC(Nc1nc(C(F)(F)F)nc2ccccc12)c1cccs1 (stereo unspecified)         0.19
15  CSCCC(Nc1ccc(S(=O)(=O)N2CCOCC2)cc1[N+](=O)[O-])C(=O)OCC(=O)N(C(C)C)C(C)C (stereo unspecified)        -0.88
16                  Cc1nn(C)c(C)c1Sc1ccccc1N         2.57
17  COc1ccc(C(C(=O)NCc2ccccc2)N(Cc2cccs2)C(=O)c2cnccn2)cc1 (stereo unspecified)        -1.35
18             Nc1cccc(CCc2nc3ccccc3[nH]2)c1         6.68
19             COc1ccc(Nc2nc(=O)[nH]nc2C)cc1        -3.65
20       CCCC(=O)Nc1ccc(C(=O)NCCCn2ccnc2)cc1         0.23
21  Cc1nn(Cc2ccc(Cl)cc2)c(Cl)c1/C=N/NC(=O)c1cccnc1         96.6
22              COc1cc2nc(Cl)nc(NCCO)c2cc1OC        -0.57
23          COc1cc(OC)cc(C(=O)NCCCn2ccnc2)c1         32.8
24     OCCNc1nc(Nc2ccc(Cl)c(Cl)c2)nc2ccccc12          124
25  CCOc1ccc(N(CC(=O)NCCc2ccc(F)cc2)S(=O)(=O)c2ccccc2)cc1         0.85
26      Cc1ccc2c(Cl)c(C(=O)Nc3nn[nH]n3)sc2c1         1.09
27           O=C(NCCCn1ccnc1)Nc1ccc(Cl)cc1Cl         69.2
28  Cc1cc(NS(=O)(=O)c2ccc(NC(=S)NC(=O)c3ccc(F)cc3Cl)cc2)no1         17.3
29  CN1CCN(c2ccc([N+](=O)[O-])c(Sc3nc4ccccc4[nH]3)c2)CC1           50
30  O=C(COc1ccc(Br)cc1F)NCC1(N2CCCCC2)CCCCC1        -0.81
31  O=C1CC2(CCCC2)C(=O)N1CN1CCN(S(=O)(=O)c2ccc(F)cc2F)CC1         1.21
32   CCn1nc(C)c(/C=N/NC(=O)Cc2ccc(Cl)cc2)c1C         56.2
33  CCOC(=O)C1CCN(C(=O)C2CCCN(S(=O)(=O)c3ccc(OC)c(Cl)c3)C2)CC1 (stereo unspecified)         1.31
34  COc1ccc(C(=O)N(C)CC(O)c2ccccc2)cc1OC1CCN(C(C)=O)CC1 (stereo unspecified)         2.56
35      O=C(Nc1nnc(Cc2ccc(Cl)cc2)s1)c1cccnc1         3.47
36             Cc1ccc(-c2nc3ccccc3[nH]2)cc1N         47.4
37  CCN1CCN(C(=O)c2cc3cc4ccc(OC)cc4nc3s2)CC1         2.17
38            COc1ccc(Nc2nnc(C)c3ccccc23)cc1          102
39        Cn1c(/C(C#N)=C2/CCCCCN2)nc2ccccc21         67.6
40                 O=C(NCCCn1ccnc1)c1ccccc1F         12.6
41  OC(COCCC12CC3CC(CC(C3)C1)C2)CN1CCCCC1 (stereo unspecified)         0.68
42  Cc1cccc(N(C)C(=O)c2cc3c(=O)[nH]c4ccc(C)cc4c3s2)c1           39
43        O=C(Cc1ccccc1)N/N=C/c1ccc(Cl)cc1Cl          1.3
44  COc1ccc(OC)c(-n2cc3c(=O)n(C)c(=O)n(C)c3c2)c1         64.9
45  Cc1ccc(NC(=O)COC(=O)CNC(=O)c2ccc(Cl)cc2Cl)cc1S(=O)(=O)N1CCOCC1        -1.57
